I'd be grateful if you could share measured selectivity ratio for these entries.
assay: Therapeutic Index is the […] of the IC50 to that of EC50; assay type: cell-based; details: human, H9 cells; read-out: TI
Give bare numbers.

{"STRUCTURE_SMILES_STRING": "C=C(C)[C@@H]1CC[C@]2(COC(=O)CC3(CC(=O)O)CCCC3)CC[C@]3(C)[C@H](CC[C@@H]4[C@@]5(C)CCC(=O)C(C)(C)[C@@H]5CC[C@]43C)[C@@H]12", "NUMERIC_VALUE": 3}

Now examine the next entry.
I am curious: what selectivity ratio value has been reported for `CC(C)[C@@H]1CC[C@]2(COC(=O)CCCC(=O)O)CC[C@]3(C)[C@H](CC[C@@H]4[C@@]5(C)CC[C@H](OC(=O)CCCC(=O)O)C(C)(C)[C@@H]5CC[C@]43C)[C@@H]12` ?
17

###

experiment: Therapeutic Index is the […] of the IC50 to that of EC50; type: cell-based; conditions: human, H9 cells; read-out: TI
REPORTED_ENDPOINT: selectivity ratio

{"COMPOUND": "C=C(C)[C@@H]1CC[C@]2(CO)CC[C@]3(C)[C@H](CC[C@@H]4[C@@]5(C)CC[C@H](O)C(C)(C)[C@@H]5CC[C@]43C)[C@@H]12", "selectivity ratio": 1.9}
{"COMPOUND": "CC(C)[C@@H]1CC[C@]2(COC(=O)CC(C)(C)CC(=O)O)CC[C@]3(C)[C@H](CC[C@@H]4[C@@]5(C)CC[C@H](OC(=O)CC(C)(C)CC(=O)O)C(C)(C)[C@@H]5CC[C@]43C)[C@@H]12", "selectivity ratio": 2250}
{"COMPOUND": "C=C(C)[C@@H]1CC[C@]2(/C=N/OC(=O)CC(C)(C)CC(=O)O)CC[C@]3(C)[C@H](CC[C@@H]4[C@@]5(C)CC/C(=N\\OC(=O)CC(C)(C)CC(=O)O)C(C)(C)[C@@H]5CC[C@]43C)[C@@H]12", "selectivity ratio": 3.4}
{"COMPOUND": "C=C(C)[C@@H]1CC[C@]2(COC(=O)CC3(CC(=O)O)CCCC3)CC[C@]3(C)[C@H](CC[C@@H]4[C@@]5(C)CC[C@H](OC(=O)CC6(CC(=O)O)CCCC6)C(C)(C)[C@@H]5CC[C@]43C)[C@@H]12", "selectivity ratio": 267}
{"COMPOUND": "C=C(CO)[C@@H]1CC[C@]2(CO)CC[C@]3(C)[C@H](CC[C@@H]4[C@@]5(C)CC[C@H](O)C(C)(C)[C@@H]5CC[C@]43C)[C@@H]12 [30-HYDROXY-BETULIN]", "selectivity ratio": 2.8}
{"COMPOUND": "C=C(C)[C@@H]1CC[C@]2(COC(=O)CC(C)(C)CC(=O)O)CC[C@]3(C)[C@H](CC[C@@H]4[C@@]5(C)CC[C@H](OC(=O)CC(C)(C)CC(=O)O)C(C)(C)[C@@H]5CC[C@]43C)[C@@H]12", "selectivity ratio": 21500}
{"COMPOUND": "C=C(C)[C@@H]1CC[C@]2(COC(=O)CCCC(=O)O)CC[C@]3(C)[C@H](CC[C@@H]4[C@@]5(C)CC[C@H](OC(=O)CCCC(=O)O)C(C)(C)[C@@H]5CC[C@]43C)[C@@H]12", "selectivity ratio": 6.8}
{"COMPOUND": "C=C(C)[C@@H]1CC[C@]2(COC(=O)C34CC5CC(CC(C5)C3)C4)CC[C@]3(C)[C@H](CC[C@@H]4[C@@]5(C)CC[C@H](OC(=O)CC(C)(C)CC(=O)O)C(C)(C)[C@@H]5CC[C@]43C)[C@@H]12", "selectivity ratio": "> 44.8"}

Now examine the next entry.
I am curious: what selectivity ratio value has been reported for `C=C(C)[C@@H]1CC[C@]2(COC(=O)CC3(CC(=O)O)CCCC3)CC[C@]3(C)[C@H](CC[C@@H]4[C@@]5(C)CC[C@H](O)C(C)(C)[C@@H]5CC[C@]43C)[C@@H]12` ?
6.1
